# Tested on: ACHN renal
# Assay overview: NCI tumour cell line growth inhibition, 48 h
This section presents compounds with their documented TGI values.
Report only the number, with the unit µM understood.

> print(dat)
                                   compound  tested.target  scale.unit  recorded.value
1  CC(C)CCCCCCCCCCCCC(=O)NCC(=O)NC1C(C)OC(Nc2ncnc3nc[nH]c23)C(O)C1O (stereo not given)     ACHN renal          µM         0.00666

Give the reported TGI for this compound. C1=CCC[C@@H]2CN3CCCC/C=C\CCCC[C@H]4C[C@H](CN(CCCCCCCC1)C4)[C@H]2CC3
17
